Catalogue of manual score values
# assay: thallium influx changes without GIRK channels – cell-based, HEK-293 rmGlu8, no GIRK, thallium flux, counter-screen for GIRK activator project, confirmation (AID 623868);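 note: extra codes mark interference with 3 for fluorescent and 4 for baseline rise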
# condition_set: thallium flux fluorescence, at 10 µM, actives lie on both sides, codes: 1 enhancer, -1 blocker, 0 none, thallium stimulus containing EC20 glutamate
About 760 (36%) of roughly 2,100 compounds were called active. The list is a sample of the results.
Respond with the number and no other words.

Examples with their reported manual score follow.
mol=S=C(Nc1ccccc1Oc1ccccc1)Nc1cccc(Cl)c1Cl readout="manual score" numeric_value=1
mol=S=C(Nc1ccccc1Cl)Nc1ccc(Cl)cc1Cl readout="manual score" numeric_value=1
mol=Fc1cc(Br)ccc1NC(=S)NCCc1ccccc1 readout="manual score" numeric_value=0
mol=O=C(NC(=S)Nc1ccccc1N1CCCC1)c1ccccc1[N+](=O)[O-] readout="manual score" numeric_value=1
mol=CN(C)S(=O)(=O)c1cccc(NC(=S)Nc2ccc(Cl)cc2Cl)c1 readout="manual score" numeric_value=1

[in] So what's the measured manual score for this one? `CN(C)S(=O)(=O)c1cccc(NC(=S)Nc2cc(Cl)cc(Cl)c2)c1`
[out] 0

[in] Give the measured manual score of `S=C(Nc1ccc(Cl)cc1Cl)Nc1ccccc1Oc1ccccc1` .
[out] 1

[in] What value of manual score has been reported for the following molecule? `Fc1ccc(NC(=S)N/N=C/c2cccc(Br)c2)c(F)c1`
[out] 1

[in] Look up manual score for this molecule: `Fc1cccc(/C=N/NC(=S)Nc2ccccc2Cl)c1`
[out] 1

[in] # query: manual score of entry `S=C(NCCc1ccccc1)Nc1ccc(Cl)cc1Cl`
[out] 0

[in] # manual score lookup, item `S=C(Nc1ccc(Oc2ccccc2)cc1)NC1CCCC1`
[out] 0

[in] Sample `COc1ccccc1NC(=S)NCCc1ccc(Cl)cc1` — what was its manual score?
[out] 0

Hello, the source for this data is PubChem BioAssay AID623868, in case you need it.
